- tested_on: T1, MPDZ_10, O75970
- T1 sequence (O75970 1624-1722, limits assumed, looked up): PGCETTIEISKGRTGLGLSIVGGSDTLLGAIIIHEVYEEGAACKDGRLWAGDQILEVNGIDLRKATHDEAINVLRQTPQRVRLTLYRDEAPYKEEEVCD
- protocol_description: holdup assay
- Design: key: below the threshold = too weak to quantify, mostly under pKd 3.1 to 4
- particulars: plain residues with an end cap or a label only (N-terminal biotin on a linker: ahx)
endpoint_label: pKd
Lab note: record the figure alone, no unit after it.

# input For KDECVIATEV [DLL1, O00548] , what is its reported pKd?
# output 3.48

# input For HSATSVHTSV [MTMR1, Q13613] , what is its reported pKd?
# output 3.81

# credit: paper PMC9482650
